Every entry's value here was drawn from paper PMC6212786.

Biological target: T1, T4 sliding clamp gp45, full length (trimer) (bacteriophage T4, UniProt P04525 1-228)
T1 sequence (looked up): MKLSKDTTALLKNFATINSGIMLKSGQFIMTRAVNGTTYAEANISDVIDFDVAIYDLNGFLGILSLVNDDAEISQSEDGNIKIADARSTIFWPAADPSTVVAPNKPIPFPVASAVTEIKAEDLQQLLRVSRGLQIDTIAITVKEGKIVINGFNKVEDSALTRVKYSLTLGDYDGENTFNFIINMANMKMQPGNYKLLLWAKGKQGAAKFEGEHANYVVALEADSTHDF
Assay: ITC
Observation Type: Kd (µM)
Record the value in µM, omitting the unit from your answer.

# input Quick check: Kd of KKEPEGLDFLFDA [T4 ligase loop peptide KKEPEGLDFLFDA] ?
# output 10.7
